Please go through the items and note down their IC50.
# System: Vero
# TEST_METHOD_NOTES: Cytotoxicity against African green monkey Vero cells by cell titer glo assay
# Format: cell-based
# COND: Chlorocebus sabaeus

Return IC50 for the following compound: O=C1COCCN1c1ccc(CO[C@@H]2COc3nc([N+](=O)[O-])cn3C2)cn1
> 100 µg/mL

Return IC50 for the following compound: O=[N+]([O-])c1cn2c(n1)OC[C@@H](OCc1ccc(N3CCOCC3)nc1)C2
> 100 µg/mL

Return IC50 for the following compound: O=C1CCCCN1c1ccc(CO[C@@H]2COc3nc([N+](=O)[O-])cn3C2)cc1F
> 100 µg/mL

====

# Tested on: Klebsiella pneumoniae
# TEST_METHOD_NOTES: Antimicrobial activity against Klebsiella pneumoniae
# Assay type: functional, organism-based
Activity calls are given as the source filed them. No cut-off for these calls is given here.
MEASURED_QUANTITY: Activity

# COMPOUND_SMILES, SUBJECT_OF_TEST, OBS_VALUE
records = [
    ("O=[N+]([O-])c1cn2c(n1)OC[C@@H](OCc1ccc(N3CCCCC3)cc1)C2", "Klebsiella pneumoniae", "inactive"),
    ("O=[N+]([O-])c1cn2c(n1)OC[C@@H](OCc1ccc(N3CCSCC3)c(F)c1)C2", "Klebsiella pneumoniae", "inactive"),
    ("O=C1CSCCN1c1ccc(CO[C@@H]2COc3nc([N+](=O)[O-])cn3C2)cc1", "Klebsiella pneumoniae", "inactive"),
    ("O=C1COCCN1c1ccc(CO[C@@H]2COc3nc([N+](=O)[O-])cn3C2)cn1", "Klebsiella pneumoniae", "inactive"),
]
